Data origin: patent US9023844B2

Assay: Determination of log P values by HPLC on a reverse phase column (C18), EEC-Directive 79/831 Annex V.A8 (Methods A, B, C)
Type: physicochemical
Details: Method B (HPLC, reverse phase C18)
Readout: LogP

Molecule | Readout | Experimental result
O=C(CCn1ccnn1)Nc1cc(-c2c(-c3ccc(F)cc3)nn3c2OCCC3)ccn1 | LogP | 1.23
CC1(C(=O)Nc2cc(-c3c(-c4ccc(F)cc4)nn4c3OCCC4)ccn2)CC1 | LogP | 1.79
O=C(CC1CCCOC1)Nc1cc(-c2c(-c3ccc(F)cc3)nn3c2OCCC3)ccn1 (centres unmarked) | LogP | 1.57
O=C(CC1CC1)Nc1cc(-c2c(-c3ccc(F)cc3F)nn3c2OCCC3)ccn1 | LogP | 1.72
CC(C)=NOCC(=O)Nc1cc(-c2c(-c3ccc(F)cc3)nn3c2OCCC3)ccn1 | LogP | 2.13
CC(C)=CCC(=O)Nc1cc(-c2c(-c3ccccc3)nn3c2OCCC3)ccn1 | LogP | 1.91
CC(C)(F)C(=O)Nc1cc(-c2c(-c3ccc(F)cc3)nn3c2OCCC3)ccn1 | LogP | 2.38
CC(=O)CCCC(=O)Nc1cc(-c2c(-c3ccc(F)cc3)nn3c2OCCC3)ccn1 | LogP | 1.35
O=C(Nc1cc(-c2c(-c3ccccc3)nn3c2OCCC3)ccn1)C1CC1 | LogP | 1.25
O=C(Cn1cncn1)Nc1cc(-c2c(-c3ccc(F)cc3)nn3c2OCCC3)ccn1 | LogP | 1.32
O=C(CC1CC1)Nc1cc(-c2c(-c3ccccc3)nn3c2OCCC3)ccn1 | LogP | 1.54
CC[C@H](C)CC(=O)Nc1cc(-c2c(-c3ccc(F)cc3)nn3c2OCCC3)ccn1 | LogP | 2.1
O=C(CCc1ccccc1)Nc1cc(-c2c(-c3ccccc3)nn3c2OCCC3)ccn1 | LogP | 2.04
CC(=O)Nc1cc(-c2c(-c3ccc(F)cc3)nn3c2OCCC3)ccn1 | LogP | 1.22
C[C@H](O)C(=O)Nc1cc(-c2c(-c3ccc(F)cc3F)nn3c2OCCC3)ccn1 | LogP | 1.34
O=C(Cn1cccn1)Nc1cc(-c2c(-c3ccc(F)cc3)nn3c2OCCC3)ccn1 | LogP | 1.63
CC(C(=O)Nc1cc(-c2c(-c3ccc(F)cc3F)nn3c2OCCC3)ccn1)c1ccc(F)cc1 (centres unmarked) | LogP | 2.48
CSCC(=O)Nc1cc(-c2c(-c3ccc(F)cc3)nn3c2OCCC3)ccn1 | LogP | 1.72
O=C1CCC(C(=O)Nc2cc(-c3c(-c4ccc(F)cc4)nn4c3OCCC4)ccn2)C1 (centres unmarked) | LogP | 1.38
CC(C)CC(=O)Nc1cc(-c2c(-c3ccc(F)cc3)nn3c2OCCC3)ccn1 | LogP | 1.82

====

Assay: Determination of log P values by HPLC on a reverse phase column (C18), EEC-Directive 79/831 Annex V.A8 (Methods A, B, C)
Assay type: physicochemical
Settings: reverse phase C18 HPLC column, Method A: HPLC, reverse phase C18, acetonitrile (0.1% formic acid)/water (0.09% formic acid) gradient; read-out: LogP

Compound | chromatographic logP
CCC(=O)Nc1cc(-c2c(-c3ccc(F)cc3)nn3c2OCCC3C)ccn1 (stereo not shown) | 1.61

====

Assay: Determination of log P values by HPLC on a reverse phase column (C18), EEC-Directive 79/831 Annex V.A8 (Methods A, B, C)
Assay type: physicochemical
Conditions: Method B (HPLC, reverse phase C18)
Method: (§1) Note on the determination of the log P values and mass detection: The stated log P values were determined in accordance with EEC-Directive 79/831 Annex V.A8 by HPLC (High Performance Liquid Chromatography) on a reverse phase column (C18). […] as §1
Documented LogP across a set of compounds
Readout: LogP

Compound | Readout | Experimental result
CCC(C)C(=O)Nc1cc(-c2c(-c3ccc(F)cc3)nn3c2OCCC3)ccn1 (centres unmarked) [Example 24] | LogP | 1.82
CCC(C)CC(C)C(=O)Nc1cc(-c2c(-c3ccc(F)cc3)nn3c2OCCC3)ccn1 (centres unmarked) [Example 127] | LogP | 2.65
O=C(CCc1ccccc1)Nc1cc(-c2c(-c3ccc(F)cc3)nn3c2OCCC3)ccn1 [Example 29] | LogP | 2.2
CC(C)(C)CC(=O)Nc1cc(-c2c(-c3ccc(F)cc3F)nn3c2OCCC3)ccn1 [Example 49] | LogP | 2.1
C[C@H](O)C(=O)Nc1cc(-c2c(-c3ccc(F)cc3)nn3c2OCCC3)ccn1 [Example 26] | LogP | 1.31
CC(C)(C)CC(=O)Nc1cc(-c2c(-c3ccccc3)nn3c2OCCC3)ccn1 [Example 20] | LogP | 1.88
O=C(Nc1cc(-c2c(-c3ccc(F)cc3)nn3c2OCCC3)ccn1)C(=O)N1CCCCC1 [Example 70] | LogP | 2.23
N#CC1(C(=O)Nc2cc(-c3c(-c4ccc(F)cc4)nn4c3OCCC4)ccn2)CC1 [Example 120] | LogP | 2.13
O=C(CC1=CCCCC1)Nc1cc(-c2c(-c3ccc(F)cc3)nn3c2OCCC3)ccn1 [Example 139] | LogP | 2.46
CC(=O)Nc1cc(-c2c(-c3ccc(F)cc3)nn3c2OCC3)ccn1 [Example 1] | LogP | 1.19
CCC(=O)Nc1cc(-c2c(-c3ccc(F)cc3F)nn3c2OCCC3)ccn1 [Example 35] | LogP | 1.34
O=C(CC(F)(F)F)Nc1cc(-c2c(-c3ccc(F)cc3F)nn3c2OCCC3)ccn1 [Example 46] | LogP | 2.13
CC(C(=O)Nc1cc(-c2c(-c3ccc(F)cc3)nn3c2OCCC3)ccn1)c1ccc(F)cc1 (centres unmarked) [Example 32] | LogP | 2.48
CC(C)=CCC(=O)Nc1cc(-c2c(-c3ccc(F)cc3)nn3c2OCCC3)ccn1 [Example 33] | LogP | 2.07
CC(C)C(=O)Nc1cc(-c2c(-c3ccccc3)nn3c2OCCC3)ccn1 [Example 8] | LogP | 1.39
CSCC(=O)Nc1cc(-c2c(-c3ccccc3)nn3c2OCCC3)ccn1 [Example 16] | LogP | 1.54
O=C(Nc1cc(-c2c(-c3ccccc3)nn3c2OCCC3)ccn1)C1(Cl)CC1 [Example 21] | LogP | 2.62

====

Experiment: Determination of log P values by HPLC on a reverse phase column (C18), EEC-Directive 79/831 Annex V.A8 (Methods A, B, C)
Format: physicochemical
Settings: reverse phase C18 HPLC column, pH 2.3, intermediates of formula [II]; HPLC, reverse phase C18; read-out: LogP (pH 2.3)
Given measured chromatographic logP, output MET if it is greater than or equal to 1 and NOT MET if not.

Compound | Group
Nc1cc(-c2c(-c3ccccc3)nn3c2NCCC3)ccn1 [[II-b-1]] | MET
Nc1cc(-c2c(-c3ccccc3)nn3c2OCCC3)ccn1 [[II-1]] | NOT MET
C[Si]1(C)COc2c(-c3ccnc(N)c3)c(-c3ccc(F)cc3)nn2C1 [[II-4]] | MET
C[Si]1(C)COc2c(-c3ccnc(N)c3)c(-c3cccs3)nn2C1 [Example 89] | MET
Nc1cc(-c2c(-c3ccc(F)cc3)nn3c2OCCC3)ccn1 [[II-2]] | NOT MET

====

Experiment: Determination of log P values by HPLC on a reverse phase column (C18), EEC-Directive 79/831 Annex V.A8 (Methods A, B, C)
Format: physicochemical
Settings: Method B (HPLC, reverse phase C18)
Documented LogP across a set of compounds
Readout: LogP

Compound | Readout | Experimental result
C[S+]([O-])C(C)(C)C(=O)Nc1cc(-c2c(-c3ccc(F)cc3)nn3c2OCCC3)ccn1 (centres unmarked) | LogP | 1.69
CC(C)CC(=O)Nc1cc(-c2c(-c3ccccc3)nn3c2OCCC3)ccn1 | LogP | 1.66
CC(C)[C@H](NC=O)C(=O)Nc1cc(-c2c(-c3ccc(F)cc3)nn3c2OCCC3)ccn1 | LogP | 1.6
CCCC(CCC)C(=O)Nc1cc(-c2c(-c3ccc(F)cc3)nn3c2OCCC3)ccn1 | LogP | 2.64
CSCC(=O)Nc1cc(-c2c(-c3ccc(F)cc3F)nn3c2OCCC3)ccn1 | LogP | 1.75
Cc1cc(C(=O)Nc2cc(-c3c(-c4ccc(F)cc4)nn4c3OCCC4)ccn2)no1 | LogP | 2.53
O=C(Nc1cc(-c2c(-c3ccc(F)cc3)nn3c2OCCC3)ccn1)C1CC=CC1 | LogP | 1.76
O=C(CN1CCCCC1)Nc1cc(-c2c(-c3ccc(F)cc3)nn3c2OCCC3)ccn1 | LogP | 1

====

Assay: Determination of log P values by HPLC on a reverse phase column (C18), EEC-Directive 79/831 Annex V.A8 (Methods A, B, C)
Type: physicochemical
Settings: reverse phase C18 HPLC column, pH 2.7, values in the synthesis examples; HPLC, reverse phase C18; read-out: log P (pH 2.7)
Documented chromatographic logP across a set of compounds
Readout: chromatographic logP

Compound | Readout | Experimental result
Oc1cc(-c2ccc(F)cc2F)n[nH]1 [[VII-3], 3-(2,4-difluorophenyl)-1H-pyrazol-5-ol] | chromatographic logP | 1.25
Nc1cc(-c2c(-c3ccccc3)nn3c2OCCC3)ccn1 [[II-1]] | chromatographic logP | 0.87
O=c1cc(-c2ccc(F)cc2)[nH][nH]1 [[VII-2], 3-(4-fluorophenyl)-1H-pyrazol-5-ol] | chromatographic logP | 1.11
Fc1ccc(-c2nn3cccnc3c2Br)cc1 [[XXXVII-2]] | chromatographic logP | 2.8
CC(F)C(=O)Nc1cc(-c2c(-c3ccc(F)cc3)nn3c2OCCC3)ccn1 (centres unmarked) [Example 113] | chromatographic logP | 2
C[C@@H]1C[C@H](C)n2nc(-c3ccc(F)cc3)c(Br)c2O1 (racemic) [[IV-9b]] | chromatographic logP | 3.68
Fc1ccc(-c2nn3ccoc3c2Br)cc1 [[IV-a-3]] | chromatographic logP | 3.07
Nc1cc(-c2c(-c3ccccc3)nn3c2NCCC3)ccn1 [[II-b-1]] | chromatographic logP | 1.05
CC(=O)Nc1cc(-c2c(-c3ccc(F)cc3)nn3c2NCCC3)ccn1 [Example 59] | chromatographic logP | 1.48
Fc1ccc(-c2nn3c(c2Br)OCC(F)(F)C3)cc1 [[IV-7]] | chromatographic logP | 3.3
Brc1c(-c2ccccc2)nn2cccnc12 [[XXXVII-1]] | chromatographic logP | 2.63
O=C(Nc1cc(-c2c(-c3ccc(F)cc3)nn3c2OCCC3)ccn1)C1CC1 [Example 4] | chromatographic logP | 1.39
Brc1c(-c2ccccc2)nn2c1OCCC2 [[IV-1]] | chromatographic logP | 2.66
Nc1cc(-c2c(-c3ccc(F)cc3F)nn3c2OCCC3)ccn1 [[II-3]] | chromatographic logP | 1.01
C[Si]1(C)COc2cc(-c3ccc(F)cc3)nn2C1 [[VI-5]] | chromatographic logP | 3.11
CC(=O)Nc1cc(-c2c(-c3ccccc3)nn3c2NCCC3)ccn1 [Example 55] | chromatographic logP | 1.13
C[C@@H]1C[C@@H](C)n2nc(-c3ccc(F)cc3)c(Br)c2O1 (racemic) [[IV-9a]] | chromatographic logP | 3.91
CC1(C)COc2c(Br)c(-c3ccc(F)cc3)nn2C1 [[IV-10]] | chromatographic logP | 3.63
Fc1ccc(-c2nn3c(c2Br)OCC3)cc1 [[IV-4]] | chromatographic logP | 2.69
CC1CCOc2c(Br)c(-c3ccc(F)cc3)nn21 (centres unmarked) [[IV-6]] | chromatographic logP | 3.36
